The values you see were collected from patent US20260217701A1.

- assay name: Dog PK study #3 (Compound A PO once daily 5 days, 5/10/20 mg/kg; PK, body weight, hematology)
- Format: in vivo, beagle dogs
- reported conditions: male, beagle, dog, plasma, po, 5 mg/kg, Day 1, 5 mg/kg dose PO; individual animals; read-out: MRT0-inf
quantity measured: MRT inf (h)
Answers are plain numbers, in h.

Exercise: I would be grateful if you could share the reported MRT inf for Cn1cc(-c2ccccc2)c(-c2cn(C)c(=O)c3[nH]c(-c4cnn(C(F)(F)F)c4)cc23)cc1=O .
Solution: 9.3

###

- assay name: Dog PK study #3 (Compound A PO once daily 5 days, 5/10/20 mg/kg; PK, body weight, hematology)
- Format: in vivo, beagle dogs
- reported conditions: male, beagle, dog, plasma, po, 10 mg/kg, Day 5, 10 mg/kg dose PO; individual animals
quantity measured: Tmax (h)
Answers are plain numbers, in h.

Exercise: I would be grateful if you could share the reported Tmax for Cn1cc(-c2ccccc2)c(-c2cn(C)c(=O)c3[nH]c(-c4cnn(C(F)(F)F)c4)cc23)cc1=O [Compound A] .
Solution: 2
